The measurements presented in this section are drawn from ChEMBL document CHEMBL1148728.

# Tested on: Human immunodeficiency virus 1
# assay_remarks: Antiviral activity against HIV1 with RT V106A mutation by cytopathic cell killing assay
# Type: functional, organism-based
pEC50: −log10 of the molar value.
measure_name: pEC50

smiles_record=CC(=O)OCc1cccc2c1nc(-c1c(F)cccc1F)n2Cc1c(F)cccc1F tgt="Human immunodeficiency virus 1" observed_measurement=5.35
smiles_record=[N-]=[N+]=NCc1cccc2c1nc(-c1c(F)cccc1F)n2Cc1c(F)cccc1F tgt="Human immunodeficiency virus 1" observed_measurement=6.21
smiles_record=Fc1cccc(F)c1Cn1c(-c2c(F)cccc2F)nc2c(CCl)cccc21 tgt="Human immunodeficiency virus 1" observed_measurement=5.33
smiles_record=OCc1cccc2c1nc(-c1c(F)cccc1F)n2Cc1c(F)cccc1F tgt="Human immunodeficiency virus 1" observed_measurement=5.23
smiles_record=CC(=O)N(C)c1cccc2c1nc(-c1c(F)cccc1F)n2Cc1c(F)cccc1F tgt="Human immunodeficiency virus 1" observed_measurement=7.30
smiles_record=Cc1ccnc2c1NC(=O)c1cccnc1N2C1CC1 tgt="Human immunodeficiency virus 1" observed_measurement=5.63
smiles_record=NCc1cccc2c1nc(-c1c(F)cccc1F)n2Cc1c(F)cccc1F tgt="Human immunodeficiency virus 1" observed_measurement=5.03
